// data source = patent US12221480

# target entity: recombinant human soluble γ2 δ3TCR-FC (wild type) (human) (UniProt B7Z8K6)
# experiment: Octet, γ2δ3TCR-hFc captured on anti-human Fc biosensor; row antibody δ3-08 taken as first (saturating), column antibody as second; 5 µg/mL each; further: unit not given here
value kind: paired-competition value (Octet signal of the second antibody per paragraph 256)
Please give only the number in your answer, with no unit.

[Q] What does the data say about its paired-competition value (Octet signal of the second antibody per paragraph 256)? Entry: δ3-23 (antibody, V domains shown) VH: EVQLQQSGAELVKPGASVKLSCTASGFNIRDTYMHWVKQRPEQGLEWIGRIDPANGNTKYDPKFRGKATITADTSSNTAYLQLSSLTSEGTAVYYCSEGIYFDYWGQGTTLTVSS VL: DILLTQSPAILSVSPGERVSFSCRASQNIGTIIHWYQQRANGSPRLLIKYASESISGIPSRFSGSGSGTDFTLSINSVESEDIADYYCQQSNSWPYTFGGGTKLEIKR
[A] 0.29
